Overview of reported normalized growth across a group of molecules:
test: chemical genetic growth profiling, strain panel (AID 1159580);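 note: tested at 20 µM; growth read once vehicle control cultures reached saturation at 30 °C; 1 = growth at the plate median or of vehicle wells; lower values mean less growth of the strain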; details: S. cerevisiae deletion strains, growth OD, locus YNL197C, strain WHI3, hits give low values
Among all 5,500 compounds or so, about 2,000 (36%) were called active. Roughly 18% stayed inconclusive and do not appear here. The list shows a part of the results.
Value Type: normalized growth

INSERT INTO results (molecule, test_value) VALUES
  ('CCN(CC)CCNC(=O)c1cc(Cl)c(N)cc1OC', 1.02),
  ('NC(N)=NC(N)=Nc1ccccc1', 1.02),
  ('NC(C(=O)O)c1cc(=O)[nH]o1 (stereo unspecified)', 0.999),
  ('CCN(CC)C(=O)c1ccc(O)c(OC)c1', 0.999),
  ('CC(=O)[C@@]1(O)CC[C@H]2[C@@H]3CCC4=CC(=O)CC[C@]4(C)[C@H]3CC[C@@]21C', 0.966),
  ('NC1CC1c1ccccc1 (stereo unspecified)', 1.01);

====

assay: chemical genetic growth profiling, strain panel (AID 1159580); details: S. cerevisiae deletion strains, growth OD, locus YDR334W, strain swr1, hits give low values
Out of some 5,500 compounds screened, about 2,000 (36%) were called active. Not shown: some 18% with an inconclusive outcome. The list shows a part of the results.
Value Type: normalized growth

INSERT INTO measurements (compound, test_value) VALUES
  ('CC1=C(O)C(=O)C=C2C1=CC=C1[C@@]2(C)CC[C@@]2(C)[C@@H]3C[C@](C)(C(=O)O)CC[C@]3(C)CC[C@]12C', '0.353 (active)'),
  ('CC(=O)OCC1=C(C(=O)O)N2C(=O)[C@@H](NC(=O)CCCC(N)C(=O)O)C2SC1 (stereo partly drawn)', '0.996 (inactive)'),
  ('O=C(CCc1ccc(O)cc1)c1c(O)cc(O)cc1O[C@@H]1O[C@H](CO)[C@@H](O)[C@H](O)[C@H]1O', '1.02 (inactive)'),
  ('COc1c2c(cc3c1OCO3)C13C=C[C@H](OC)CC1N(C2)CC3O (stereo partly drawn)', '0.978 (inactive)'),
  ('CN1CCN(CCCN2c3ccccc3Sc3ccc(C(F)(F)F)cc32)CC1', '0.0668 (active)'),
  ('CC(=O)Oc1cc2c(c(C)c1OC(C)=O)CC1OC13C2(C)CCC1(C)C2CC(C)(C(=O)O)CCC2(C)CCC13C (stereo not drawn)', '1.01 (inactive)'),
  ('COC(=O)[C@]1(C)CC[C@]2(C)CC[C@]3(C)C4=CC=C5C(=CC(=O)C(O)=C5C)[C@]4(C)CC[C@@]3(C)[C@@H]2C1', '0.553 (active)'),
  ('CCOc1cccc(C(=O)c2ccc(O)c(O)c2O)c1', '0.886 (active)');

====

Overview of reported normalized growth across a group of compounds:
assay: chemical genetic growth profiling, strain panel (AID 1159580);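 note: tested at 20 µM; growth read once vehicle control cultures reached saturation at 30 °C; 1 = growth at the plate median or of vehicle wells; lower values mean less growth of the strain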; conditions: S. cerevisiae deletion strains, growth OD, locus YIL066C, strain RNR3, hits give low values
Out of some 5,500 compounds screened, about 2,000 (36%) were called active. Roughly 18% stayed inconclusive and do not appear here. Some of the results follow.
Value Type: normalized growth

INSERT INTO measurements (compound, test_value) VALUES
  ('COc1ccc(C2C(=O)c3ccccc3C2=O)cc1', 0.996),
  ('COC(=O)C[C@H]1C(C)(C)[C@@H](O)[C@@H]2CC3=C4C=C(OC)O[C@@H](c5ccoc5)[C@]4(C)CCC3[C@@]1(C)C2=O (some centres not stated)', 1.02),
  ('COc1c2occc2c(OC)c2c(=O)cc(C)oc12', 1.02),
  ('CC1(C)C=Cc2cc3ccc(=O)oc3cc2O1', 0.993),
  ('COc1cc2c(cc1OC)[C@@]13CCN4CC5=CCOC6CC(=O)N2C1[C@H]6[C@H]5C[C@H]43 (some centres not stated)', 1.02),
  ('CC(=O)O[C@H]1CC[C@]2(C)C3CC[C@@]4(C)C(CC5O[C@@]6(CCC(C)CO6)[C@@H](C)C54)C3CC[C@@H]2C1 (some centres not stated)', 1.01),
  ('O=C1c2ccccc2C(=O)C1c1ccccc1', 1.01),
  ('OCCN1CCN(CCCN2c3ccccc3Sc3ccc(C(F)(F)F)cc32)CC1', 0.915),
  ('COC1(C)CCC2OC2(C)CCC2C1CC2(C)C (configuration not stated)', 1),
  ('COc1cc(-c2oc3cc(O)ccc3c(=O)c2O)cc(OC)c1OC', 1),
  ('CCNc1nc(Cl)nc(NCC)n1', 1.01),
  ('COc1cc2c(cc1O)CCNC2C (configuration not stated)', 1.01),
  ('Cc1cc(=O)n(-c2ccccc2)n1C', 1.04),
  ('CC(=O)O[C@H]1CC[C@]2(C)C3CC(=O)[C@]4(C)C(C(C)=O)=CCC4C3CC[C@H]2C1 (some centres not stated)', 0.98),
  ('COP(=O)(OC)OC(Br)C(Cl)(Cl)Br (configuration not stated)', 0.984),
  ('CCCCc1nc(Cl)c(CO)n1Cc1ccc(-c2ccccc2-c2nn[nH]n2)cc1', 1.01),
  ('O=c1c(O)c(-c2ccc(O)c(O)c2)oc2cc(O)ccc12', 0.846),
  ('CC(N)C(O)c1ccc(O)c(O)c1 (configuration not stated)', 0.986),
  ('O=c1oc2c(O)c(O)cc3c(=O)oc4c(O)c(O)cc1c4c23', 0.669),
  ('Cc1onc(-c2ccccc2)c1C(=O)NC1C(=O)N2[C@@H]1SC(C)(C)[C@@H]2C(=O)O (some centres not stated)', 1.01),
  ('CN1CCN(CCCN2c3ccccc3Sc3ccc(C(F)(F)F)cc32)CC1', 0.0614),
  ('CC1(C)S[C@@H]2[C@H](NC(=O)Cc3ccccc3)C(=O)N2[C@H]1C(=O)O', 1),
  ('CC(=O)c1cc2c(cc1O)OC(C)(C)C=C2', 0.979),
  ('CC(=O)O[C@@H]1CC[C@]2(C)C3CC[C@]4(C)C(=O)CCC4C3CC[C@H]2C1 (some centres not stated)', 0.852),
  ('CCOc1cccc(C(=O)c2ccc(O)c(O)c2O)c1', 0.8),
  ('COc1c2ccoc2cc2oc(C)cc(=O)c12', 0.971),
  ('CO[C@@]1(NC(=O)Cc2cccs2)C(=O)N2C(C(=O)O)=C(COC(N)=O)CS[C@@H]21', 1.01);

====

test: chemical genetic growth profiling, strain panel (AID 1159580);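 note: tested at 20 µM; growth read once vehicle control cultures reached saturation at 30 °C; 1 = growth at the plate median or of vehicle wells; lower values mean less growth of the strain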; settings: S. cerevisiae deletion strains, growth OD, locus YAR019C, strain CDC15
Among all 5,500 compounds or so, about 2,000 (36%) were called active. Roughly 18% stayed inconclusive and do not appear here. Rule as the data show it: active = normalized growth mostly below about 0.91 (no sharp cut-off); inconclusive = no clear call, values can overlap the other calls; inactive = mostly above about 0.92. The list shows a part of the results.
Possible outcomes: t for active, f for inactive

INSERT INTO assay_data (compound, group) VALUES
  ('OC(CSc1ccccc1)CN1CCN(c2nc(-c3ccccc3)ns2)CC1 (stereo unspecified)', 'f'),
  ('S=C(N/N=C\c1cccs1)NC1CC2CCC1C2 (stereo unspecified)', 'f'),
  ('FC(F)(F)c1cc(-c2ccc(Cl)cc2)n[nH]1', 'f'),
  ('O=c1c(-c2ccccc2)c(O)c2cccc3c4c(n1c23)CCCC4', 'f'),
  ('O=c1c(-c2ccccc2)c(O)c2cccc3c4ccccc4n1c23', 't'),
  ('C/C(=N/NC(=O)c1ccc(C(C)(C)C)cc1)c1ccccc1O', 'f');

====

experiment: chemical genetic growth profiling, strain panel (AID 1159580);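 note: tested at 20 µM; growth read once vehicle control cultures reached saturation at 30 °C; 1 = growth at the plate median or of vehicle wells; lower values mean less growth of the strain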; conditions: S. cerevisiae deletion strains, growth OD, locus YKL085W, strain MDH1, hits give low values
About 2,000 (36%) of roughly 5,500 compounds were called active. Not shown: some 18% with an inconclusive outcome. The list shows a part of the results. Where a SMILES comes first, the peptide text is derived from it. Side-chain parts run from the residue outwards. [ ]: non-standard residue; d: D form. The star is where a group is joined. X1 = CCC(C)C(N)C1=NC(C(=O)*)CS1; Orn = NCCC[CH](N)C(=O)O
Value Type: normalized growth

INSERT INTO results (compound, test_value) VALUES
  ('O=C(CCc1ccc(O)cc1)c1c(O)cc(O)cc1O[C@@H]1O[C@H](CO)[C@@H](O)[C@H](O)[C@H]1O', '0.988 (inactive)'),
  ('CCNc1nc(Cl)nc(NCC)n1', '1 (inactive)'),
  ('CCC(C)C(N)C1=NC(C(=O)NC(CC(C)C)C(=O)NC(CCC(=O)O)C(=O)NC(C(=O)NCCCCC2NC(=O)C(CC(N)=O)NC(=O)C(CC(=O)O)NC(=O)C(Cc3cnc[nH]3)NC(=O)C(Cc3ccccc3)NC(=O)C(C(C)CC)NC(=O)C(CCCN)NC2=O)C(C)CC)CS1 (stereo not drawn) (cyclo(DNK([Ile-Glu-Leu-X1])[Orn]IFH); configuration not given here)', '0.966 (inactive)'),
  ('CC(=O)OCC1=C(C(=O)O)N2C(=O)[C@@H](NC(=O)CCCC(N)C(=O)O)C2SC1 (some centres undefined)', '0.995 (inactive)');
